// provenance: patent US12297194B2

# Experimental Target: Ba/F3 EGFR Del19/C797S mutants (Homo sapiens, UniProt P00533, C797S, cells depend on it, form not given)
# Assay Explanation: CellTiter-Glo cell viability, Ba/F3 EGFR Del19/C797S cells
# Assay type: cell-based, murine
# Setup Conditions: 72 hours, read-out: Ba/F3 EGFR mutant cell (IC50, nM) D/C
Category key, based on recorded GI50: bottom bin (below 10 nM), middle bin (10 nM to below 60 nM), top bin (60 nM or more)

CCc1cc(Nc2ncc(Br)c(N(C)c3ccc4nccnc4c3N(C)S(C)(=O)=O)n2)c(OC)cc1N1CCC(N(C)C)CC1; middle bin
CCc1cc(Nc2ncc(Br)c(Nc3ccc4nccnc4c3N(C)S(C)(=O)=O)n2)c(OC)cc1N1CCC(N2CCN(C)CC2)CC1; middle bin
CNc1cc(N2CCC(N3CCN(C)CC3)CC2)c(C)cc1Nc1ncc(Cl)c(Nc2ccc3nccnc3c2NS(C)(=O)=O)n1; top bin
COc1cc(N2CCC(N3CCN(C)CC3)CC2)c(C)cc1Nc1ncc(Br)c(Nc2cccc(OC)c2NS(C)(=O)=O)n1; middle bin
CCc1cc(Nc2ncc(Br)c(Nc3ccc4nccnc4c3N(C)S(C)(=O)=O)n2)c(OC)cc1N1CCC(N2CCOCC2)CC1; bottom bin
CCCc1cc(Nc2ncc(Cl)c(Nc3ccc4nccnc4c3NS(C)(=O)=O)n2)c(OC)cc1N1CCC(N(C)C)CC1; middle bin
CCc1cc(Nc2ncc(Cl)c(Nc3ccc4nccnc4c3NS(C)(=O)=O)n2)c(OC)cc1N1CC2(C1)CN(C(C)C)C2; middle bin
COc1cc(N2CCC(N3CCN(C)CC3)CC2)ccc1Nc1ncc(Cl)c(Nc2ccc3c(c2NS(C)(=O)=O)OCCO3)n1; top bin
CCc1cc(Nc2ncc(Br)c(Nc3ccc4nccnc4c3N(C)S(C)(=O)=O)n2)c(OC)cc1N1CCC(N(C)C)CC1; bottom bin
CCc1cc(Nc2ncc(Br)c(Nc3ccc4nccnc4c3N(C)S(C)(=O)=O)n2)c(OC)cc1N1CCC(N2CCCCC2)CC1; bottom bin
CCc1cc(Nc2ncc(Cl)c(Nc3ccc4nccnc4c3N(C)S(C)(=O)=O)n2)c(OC)cc1N1CCC(N2CCCC2)CC1; bottom bin
CCc1cc(Nc2ncc(Cl)c(Nc3ccc(OC)c(OC)c3N(C)S(C)(=O)=O)n2)c(OC)cc1N1CCC(N2CCOCC2)CC1; top bin
COc1cc(N2CCC(N3CCN(C)CC3)CC2)ccc1Nc1ncc(Cl)c(Nc2ccc3scnc3c2NS(C)(=O)=O)n1; top bin
CCc1cc(Nc2ncc(Br)c(Nc3ccc4nccnc4c3N(C)S(C)(=O)=O)n2)c(OC)cc1N1CC2CCC1CN2C(C)C (centres unmarked); middle bin
COc1cc(N2CCC(N(C)C)CC2)c(C)cc1Nc1ncc(C(F)(F)F)c(Nc2ccc3nccnc3c2NS(C)(=O)=O)n1; top bin
COc1cc(N2CCC(N3CCN(CC(F)F)CC3)CC2)ccc1Nc1ncc(Cl)c(Nc2ccc3nccnc3c2NS(C)(=O)=O)n1; top bin
COc1cc(N2CCC(N3CCCC3)CC2)c(C)cc1Nc1ncc(Cl)c(Nc2ccc3nccnc3c2NS(C)(=O)=O)n1; middle bin
CCc1cc(Nc2ncc(Br)c(Nc3ccc4c(c3N(C)S(C)(=O)=O)OCCO4)n2)c(OC)cc1N1CCC(N2CCN(C)CC2)CC1; bottom bin
COc1cc(N2CCC(N3CCN(C)CC3)CC2)c(C2CC2)cc1Nc1ncc(Cl)c(Nc2ccc3nccnc3c2NS(C)(=O)=O)n1; top bin
COc1cc(N2CCC(N3CCCC3)CC2)c(C)cc1Nc1ncc(Cl)c(Nc2cccc(OC)c2NS(C)(=O)=O)n1; bottom bin
COc1cc(N2CCN([C@@H]3CCN(C)C[C@@H]3F)CC2)ccc1Nc1ncc(Cl)c(Nc2ccc3nccnc3c2NS(C)(=O)=O)n1; top bin
COc1cc(N2CCC(N3CCN(C)CC3)CC2)c(C(F)(F)F)cc1Nc1ncc(Cl)c(Nc2ccc3nccnc3c2NS(C)(=O)=O)n1; top bin
CCS(=O)(=O)Nc1c(Nc2nc(Nc3cc(C)c(N4CCC(N5CCN(C)CC5)CC4)cc3OC)ncc2Cl)cccc1OC; bottom bin
CCc1cc(Nc2ncc(Br)c(Nc3ccc4nccnc4c3NS(C)(=O)=O)n2)c(OC)cc1N1CCC(N2CC3CCC2CN3C)CC1 (centres unmarked); middle bin
CCc1cc(Nc2ncc(F)c(Nc3ccc4nccnc4c3NS(C)(=O)=O)n2)c(OC)cc1N1CCC(N2CCN(C)CC2)CC1; middle bin

----------
Quick list: GI50 per entry.
# Experimental Target: Ba/F3 EGFR Del19/T790M mutants (Homo sapiens, UniProt P00533, T790M, cells depend on it, form not given)
# Sequence (P00533 with tags, fused parts or gaps DEL746-750/T790M, form open): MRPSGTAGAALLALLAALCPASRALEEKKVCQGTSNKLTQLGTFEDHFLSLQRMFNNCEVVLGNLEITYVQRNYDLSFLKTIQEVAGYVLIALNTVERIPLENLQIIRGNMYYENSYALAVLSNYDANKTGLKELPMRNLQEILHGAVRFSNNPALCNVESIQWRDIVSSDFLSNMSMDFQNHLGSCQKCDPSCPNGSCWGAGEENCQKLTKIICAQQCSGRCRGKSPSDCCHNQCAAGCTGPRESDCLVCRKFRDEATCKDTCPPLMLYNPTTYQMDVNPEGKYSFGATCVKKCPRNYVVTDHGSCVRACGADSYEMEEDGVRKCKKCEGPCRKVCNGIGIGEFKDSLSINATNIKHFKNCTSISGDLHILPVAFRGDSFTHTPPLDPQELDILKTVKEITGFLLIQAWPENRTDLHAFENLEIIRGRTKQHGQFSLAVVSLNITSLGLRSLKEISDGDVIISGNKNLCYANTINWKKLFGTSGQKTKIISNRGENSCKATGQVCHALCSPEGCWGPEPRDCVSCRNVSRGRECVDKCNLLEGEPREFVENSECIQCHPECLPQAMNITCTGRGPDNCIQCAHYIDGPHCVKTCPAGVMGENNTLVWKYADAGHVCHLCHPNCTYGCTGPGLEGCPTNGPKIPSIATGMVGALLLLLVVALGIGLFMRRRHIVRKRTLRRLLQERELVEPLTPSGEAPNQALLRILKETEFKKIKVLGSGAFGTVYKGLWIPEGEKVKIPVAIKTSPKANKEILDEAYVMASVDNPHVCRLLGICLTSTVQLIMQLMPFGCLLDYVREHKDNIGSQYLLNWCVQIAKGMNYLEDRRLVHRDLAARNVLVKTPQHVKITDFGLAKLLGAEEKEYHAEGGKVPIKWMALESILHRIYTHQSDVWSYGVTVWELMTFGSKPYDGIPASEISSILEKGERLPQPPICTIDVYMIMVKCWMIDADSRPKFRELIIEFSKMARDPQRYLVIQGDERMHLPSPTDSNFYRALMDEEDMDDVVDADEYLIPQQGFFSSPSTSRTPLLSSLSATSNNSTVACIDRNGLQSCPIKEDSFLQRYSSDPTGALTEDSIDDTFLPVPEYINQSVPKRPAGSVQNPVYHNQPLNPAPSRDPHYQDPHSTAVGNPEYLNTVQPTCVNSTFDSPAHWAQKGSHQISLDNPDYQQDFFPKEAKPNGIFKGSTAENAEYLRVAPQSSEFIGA
# Assay Explanation: CellTiter-Glo cell viability, Ba/F3 EGFR Del19/T790M cells
# Type: cell-based, murine
# Setup Conditions: 72 hours, read-out: Ba/F3 EGFR mutant cell (IC50, nM) D/T
# Procedure: In order to evaluate an inhibitory ability on wild-type Ba/F3 EGFR and Ba/F3 EGFR mutations in Ba/F3 cell lines by the compounds of Formula 1, the experiment was carried out as described below. The measurement of activities on Ba/F3 cells harboring wild-type EGFR and EGFR mutants by the compounds of the present invention were determined utilizing the CELLTITER-GLO™ system from Promega, as follows. […]
Metric: GI50 (nM)

COc1ccc(Nc2nc(Nc3cc(C)c(N4CCC(N5CCN(C)CC5)CC4)cc3OC)ncc2Cl)c(NS(C)(=O)=O)c1; 8
CCc1cc(Nc2ncc(Br)c(Nc3ccc4nccnc4c3N(C)S(C)(=O)=O)n2)c(OC(C)C)cc1C1CCN(C)CC1; 154
COc1cc(N2CC[C@H](N3CCN(C)CC3)[C@H](F)C2)ccc1Nc1ncc(Cl)c(Nc2ccc3nccnc3c2NS(C)(=O)=O)n1; 219

----------
# Experimental Target: Ba/F3 EGFR L858R/C797S mutants (Homo sapiens, UniProt P00533, C797S/L858R, cells depend on it)
# Sequence (P00533 whole entry C797S/L858R): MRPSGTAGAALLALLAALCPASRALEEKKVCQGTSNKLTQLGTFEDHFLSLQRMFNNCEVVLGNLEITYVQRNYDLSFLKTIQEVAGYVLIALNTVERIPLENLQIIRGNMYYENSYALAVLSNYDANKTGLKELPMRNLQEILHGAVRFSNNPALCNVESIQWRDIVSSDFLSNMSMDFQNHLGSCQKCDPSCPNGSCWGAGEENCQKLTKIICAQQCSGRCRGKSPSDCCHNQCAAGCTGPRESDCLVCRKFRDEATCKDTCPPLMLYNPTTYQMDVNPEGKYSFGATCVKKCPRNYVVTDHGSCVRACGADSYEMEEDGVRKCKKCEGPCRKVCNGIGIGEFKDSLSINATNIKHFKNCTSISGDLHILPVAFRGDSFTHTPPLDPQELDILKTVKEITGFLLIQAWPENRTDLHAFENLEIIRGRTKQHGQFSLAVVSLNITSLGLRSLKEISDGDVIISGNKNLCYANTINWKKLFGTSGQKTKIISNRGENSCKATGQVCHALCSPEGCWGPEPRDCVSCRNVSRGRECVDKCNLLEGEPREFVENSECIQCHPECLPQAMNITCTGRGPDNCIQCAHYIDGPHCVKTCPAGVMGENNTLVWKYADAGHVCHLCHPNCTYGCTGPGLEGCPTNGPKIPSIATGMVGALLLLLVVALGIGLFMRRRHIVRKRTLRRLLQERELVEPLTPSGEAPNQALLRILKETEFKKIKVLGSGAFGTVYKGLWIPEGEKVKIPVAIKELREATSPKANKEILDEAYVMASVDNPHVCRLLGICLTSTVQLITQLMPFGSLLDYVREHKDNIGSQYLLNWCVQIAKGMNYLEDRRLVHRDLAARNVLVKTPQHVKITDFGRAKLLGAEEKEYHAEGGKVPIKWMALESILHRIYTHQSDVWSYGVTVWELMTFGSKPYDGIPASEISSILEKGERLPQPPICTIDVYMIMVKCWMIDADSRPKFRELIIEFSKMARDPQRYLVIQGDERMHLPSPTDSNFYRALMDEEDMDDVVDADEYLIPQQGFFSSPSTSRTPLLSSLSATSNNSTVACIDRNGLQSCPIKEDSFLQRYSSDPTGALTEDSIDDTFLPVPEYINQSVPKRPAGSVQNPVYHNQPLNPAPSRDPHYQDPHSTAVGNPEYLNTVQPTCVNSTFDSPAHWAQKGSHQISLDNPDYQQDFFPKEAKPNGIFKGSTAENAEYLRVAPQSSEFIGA
# Assay Explanation: CellTiter-Glo cell viability, Ba/F3 EGFR L858R/C797S cells
# Assay type: cell-based, murine
# Setup Conditions: 72 hours, read-out: Ba/F3 EGFR mutant cell (IC50, nM) L/C
Metric: GI50 (nM)

COc1cc(N2CCC(N3CCOCC3)CC2)c(C)cc1Nc1ncc(Cl)c(Nc2ccc3nccnc3c2NS(C)(=O)=O)n1; 79
COc1cc(N2CCC(N3CCN(C)CC3)CC2)c(C2CC2)cc1Nc1ncc(Cl)c(Nc2ccc3nccnc3c2NS(C)(=O)=O)n1; 244
COc1ccc(Nc2nc(Nc3cc(C)c(N4CCC(N5CCCC5)CC4)cc3OC)ncc2Cl)c(NS(C)(=O)=O)c1; 45
CCc1cc(Nc2ncc(Br)c(Nc3ccc4nccnc4c3NS(C)(=O)=O)n2)c(OC)cc1N1CCC(N2CCOCC2)CC1; 101
COc1cc(C2CCNCC2)c(F)cc1Nc1ncc(Cl)c(Nc2ccc3nccnc3c2NS(C)(=O)=O)n1; 500
CCc1cc(Nc2ncc(Cl)c(Nc3ccc4nccnc4c3N(C)S(C)(=O)=O)n2)c(OC)cc1N1CCC(N2CCCC2)CC1; 28
CCS(=O)(=O)Nc1c(Nc2nc(Nc3cc(C)c(N4CCC(N5CCN(C)CC5)CC4)cc3OC)ncc2Cl)ccc2nccnc12; 112

----------
Quick list: GI50 per entry.
# Experimental Target: Ba/F3 EGFR L858R/T790M/C797S mutants (Homo sapiens, UniProt P00533, T790M/C797S/L858R, cells depend on it)
# Sequence (P00533 whole entry T790M/C797S/L858R): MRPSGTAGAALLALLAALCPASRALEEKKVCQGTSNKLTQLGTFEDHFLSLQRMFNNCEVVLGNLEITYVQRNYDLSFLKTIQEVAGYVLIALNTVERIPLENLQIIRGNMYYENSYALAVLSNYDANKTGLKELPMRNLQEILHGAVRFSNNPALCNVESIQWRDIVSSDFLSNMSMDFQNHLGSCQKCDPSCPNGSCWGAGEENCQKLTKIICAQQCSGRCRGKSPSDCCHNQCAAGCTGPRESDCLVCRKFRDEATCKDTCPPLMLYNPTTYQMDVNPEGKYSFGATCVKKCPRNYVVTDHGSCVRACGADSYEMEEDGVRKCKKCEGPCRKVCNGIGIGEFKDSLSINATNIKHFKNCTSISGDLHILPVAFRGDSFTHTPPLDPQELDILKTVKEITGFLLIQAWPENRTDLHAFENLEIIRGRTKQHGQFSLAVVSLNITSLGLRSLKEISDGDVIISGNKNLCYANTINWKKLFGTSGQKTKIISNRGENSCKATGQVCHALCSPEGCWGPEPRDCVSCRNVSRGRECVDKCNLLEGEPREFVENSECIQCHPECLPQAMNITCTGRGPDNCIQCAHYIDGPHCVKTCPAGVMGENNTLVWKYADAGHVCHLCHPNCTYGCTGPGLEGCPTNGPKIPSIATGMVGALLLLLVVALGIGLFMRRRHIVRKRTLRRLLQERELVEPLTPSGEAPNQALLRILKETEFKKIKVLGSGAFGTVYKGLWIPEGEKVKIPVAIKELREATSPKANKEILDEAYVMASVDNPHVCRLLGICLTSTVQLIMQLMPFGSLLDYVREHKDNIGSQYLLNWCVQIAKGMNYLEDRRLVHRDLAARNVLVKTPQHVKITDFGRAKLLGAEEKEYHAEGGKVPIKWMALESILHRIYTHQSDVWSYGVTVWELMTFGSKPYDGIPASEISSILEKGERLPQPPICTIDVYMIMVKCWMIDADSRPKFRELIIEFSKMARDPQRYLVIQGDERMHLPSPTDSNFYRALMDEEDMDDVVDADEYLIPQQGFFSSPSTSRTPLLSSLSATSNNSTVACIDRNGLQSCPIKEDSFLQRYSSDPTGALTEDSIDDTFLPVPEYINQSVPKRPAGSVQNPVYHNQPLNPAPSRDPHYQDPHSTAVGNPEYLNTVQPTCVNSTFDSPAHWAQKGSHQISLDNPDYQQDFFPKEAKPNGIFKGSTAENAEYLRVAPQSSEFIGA
# Assay Explanation: CellTiter-Glo cell viability, Ba/F3 EGFR L858R/T790M/C797S cells
# Format: cell-based, murine
# Setup Conditions: 72 hours, read-out: Ba/F3 EGFR mutant cell (IC50, nM) L/T/C
Metric: GI50 (nM)

COc1cc(N2CCC(N3CCCC3)CC2)c(C)cc1Nc1ncc(Cl)c(Nc2ccc3nccnc3c2NS(C)(=O)=O)n1 [Example A30]; 23
CCc1cc(Nc2ncc(Br)c(Nc3ccc4nccnc4c3N(C)S(C)(=O)=O)n2)c(OC(C)C)cc1C1CCN(C)CC1 [Example B32]; 83
COc1cc(N2CCC(N3CCN(C)CC3)CC2)c(C)cc1Nc1ncc(Cl)c(Nc2ccc3nccnc3c2NS(=O)(=O)C2CC2)n1 [Example A26]; 107
COc1cc(C2=CCNCC2)c(C)cc1Nc1ncc(Br)c(Nc2ccc3nccnc3c2NS(C)(=O)=O)n1 [Example D2]; 330
COc1cc(C2CCNCC2)ccc1Nc1ncc(Br)c(Nc2ccc3nccnc3c2NS(C)(=O)=O)n1 [Example B18]; 1440
COc1cc(N2CCC(N3CCN(C)CC3)CC2)c(C)cc1Nc1ncc(Cl)c(Nc2ccc3nccnc3c2NS(C)(=O)=O)n1 [Example A1]; 17
CCCc1cc(Nc2ncc(F)c(Nc3ccc4nccnc4c3NS(C)(=O)=O)n2)c(OC)cc1N1CCC(N2CCN(C)CC2)CC1 [Example A32]; 229

----------
# Experimental Target: Ba/F3 EGFR Del19/T790M/C797S mutants (Homo sapiens, UniProt P00533, T790M/C797S, cells depend on it, form not given)
# Sequence (P00533 with tags, fused parts or gaps DEL746-750/T790M/C797S, form open): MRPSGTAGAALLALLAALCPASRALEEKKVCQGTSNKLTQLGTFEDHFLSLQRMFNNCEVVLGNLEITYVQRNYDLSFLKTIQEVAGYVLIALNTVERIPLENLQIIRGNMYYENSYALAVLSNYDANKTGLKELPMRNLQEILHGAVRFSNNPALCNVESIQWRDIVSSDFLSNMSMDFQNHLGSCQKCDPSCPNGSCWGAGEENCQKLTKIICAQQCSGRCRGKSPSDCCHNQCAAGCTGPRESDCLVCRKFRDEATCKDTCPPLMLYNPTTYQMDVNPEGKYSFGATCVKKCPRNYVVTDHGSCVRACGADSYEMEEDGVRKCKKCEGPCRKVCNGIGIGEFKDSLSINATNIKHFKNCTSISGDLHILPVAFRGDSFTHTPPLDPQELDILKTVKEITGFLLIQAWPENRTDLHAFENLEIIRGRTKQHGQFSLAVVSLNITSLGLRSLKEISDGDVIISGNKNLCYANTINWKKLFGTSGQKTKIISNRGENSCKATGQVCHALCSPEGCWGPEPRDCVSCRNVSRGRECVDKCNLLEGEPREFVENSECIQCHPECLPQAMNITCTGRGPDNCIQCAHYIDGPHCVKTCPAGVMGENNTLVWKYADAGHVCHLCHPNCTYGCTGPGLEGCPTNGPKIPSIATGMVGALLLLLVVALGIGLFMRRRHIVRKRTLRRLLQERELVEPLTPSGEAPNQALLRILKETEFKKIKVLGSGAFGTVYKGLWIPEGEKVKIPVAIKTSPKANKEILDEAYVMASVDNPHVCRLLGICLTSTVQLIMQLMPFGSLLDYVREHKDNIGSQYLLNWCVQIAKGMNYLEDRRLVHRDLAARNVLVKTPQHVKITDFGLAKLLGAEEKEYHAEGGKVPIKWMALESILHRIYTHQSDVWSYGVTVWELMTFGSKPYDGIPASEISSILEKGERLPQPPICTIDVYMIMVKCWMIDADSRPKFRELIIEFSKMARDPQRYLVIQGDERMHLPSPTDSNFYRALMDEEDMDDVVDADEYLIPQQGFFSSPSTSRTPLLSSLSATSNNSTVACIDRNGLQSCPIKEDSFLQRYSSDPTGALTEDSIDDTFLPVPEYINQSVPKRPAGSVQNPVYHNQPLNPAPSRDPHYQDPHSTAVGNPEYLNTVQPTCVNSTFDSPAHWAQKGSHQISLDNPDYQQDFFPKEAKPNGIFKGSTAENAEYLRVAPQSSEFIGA
# Assay Explanation: CellTiter-Glo cell viability, Ba/F3 EGFR Del19/T790M/C797S cells
# Assay type: cell-based, murine
# Setup Conditions: 72 hours, read-out: Ba/F3 EGFR mutant cell (IC50, nM) D/T/C
Quick list: GI50 per entry.
Metric: GI50 (nM)

CCc1cc(Nc2ncc(Br)c(Nc3ccc4nccnc4c3N(C)S(C)(=O)=O)n2)c(OC)cc1N1CC2(C1)CN(C(C)C)C2; 2
CCc1cc(Nc2ncc(Cl)c(Nc3ccc4nccnc4c3N(C)S(C)(=O)=O)n2)c(OC)cc1N1CCC(N2CCCC2)CC1; 5
COc1cc(N2CCC(N3CCN(C)CC3)CC2)c(C)cc1Nc1ncc(C(F)(F)F)c(Nc2ccc3nccnc3c2NS(C)(=O)=O)n1; 1590
COc1cc(N2CCC(N3CCN(C)CC3)CC2)c(C)cc1Nc1ncc(F)c(Nc2ccc3nccnc3c2NS(C)(=O)=O)n1; 189
COc1cc(C2CCNCC2)ccc1Nc1ncc(Br)c(Nc2ccc3nccnc3c2NS(C)(=O)=O)n1; 818
COc1cc(C2=CCNCC2)c(C)cc1Nc1ncc(Br)c(Nc2ccc3nccnc3c2NS(C)(=O)=O)n1 [Example D2]; 710
CCc1cc(Nc2ncc(Br)c(Nc3ccc4nccnc4c3NS(C)(=O)=O)n2)c(OC)cc1N1CCC(N2CCOCC2)CC1; 51
COc1cc(N2CCOCC2)c(C)cc1Nc1ncc(Br)c(Nc2ccc3nccnc3c2NS(C)(=O)=O)n1; 252
COc1cc(N2CCC(N3CCN(C)CC3)CC2)c(C)cc1Nc1ncc(Cl)c(Nc2ccc3nccnc3c2NS(=O)(=O)C2CC2)n1; 79
COc1cc(N2CCC(N3CCN(C)CC3)CC2)c(C)cc1Nc1ncc(Br)c(Nc2ccc3nccnc3c2NS(C)(=O)=O)n1; 1
CCc1cc(Nc2ncc(Cl)c(Nc3ccc(OC)cc3NS(C)(=O)=O)n2)c(OC)cc1N1CCC(N2CCOCC2)CC1; 4
COc1cc(N2CCOCC2)c(C)cc1Nc1ncc(Br)c(Nc2ccc3nccnc3c2S(C)(=O)=O)n1 [Example D1]; 959
COc1cc(N2CCC(N3CCCC3)CC2)c(C)cc1Nc1ncc(Cl)c(Nc2ccc3c(c2NS(C)(=O)=O)OCCO3)n1; 15
